System Tested: human FPR2 (Homo sapiens (Human))
Sequence (P25090 whole entry): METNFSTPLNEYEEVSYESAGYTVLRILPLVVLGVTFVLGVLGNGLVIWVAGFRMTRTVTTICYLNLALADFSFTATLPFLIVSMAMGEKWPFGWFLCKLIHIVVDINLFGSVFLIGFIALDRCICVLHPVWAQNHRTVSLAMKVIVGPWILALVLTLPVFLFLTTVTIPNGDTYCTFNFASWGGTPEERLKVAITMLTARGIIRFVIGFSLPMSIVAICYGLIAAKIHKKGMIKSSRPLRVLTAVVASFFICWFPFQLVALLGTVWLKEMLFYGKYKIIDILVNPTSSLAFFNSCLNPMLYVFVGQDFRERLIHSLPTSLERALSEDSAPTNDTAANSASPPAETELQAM
Assay Notes: FPR2 cyclic adenosine monophosphate (cAMP) assay
Type: cell-based
Experimental Parameters: CHO cells overexpressing human FPR2; forskolin 5 µM; inhibition of cAMP production; read-out: hFPR2 cAMP2 EC50
Description: N-formyl peptide receptors (FPRs) are a family of chemo attractant receptors that facilitate leukocyte response during inflammation. FPRs belong to the seven-transmembrane G protein-coupled receptor superfamily and are linked to inhibitory G-proteins (Gi). […] FPR2 and FPR1 Cyclic Adenosine Monophosphate (cAMP) Assays. […] The level of intracellular cAMP was determined using the HTRF HiRange cAMP assay reagent kit (Cisbio) according to manufacturer’s instruction. […]
pEC50: −log10 of the molar value.
Rule: pEC50 of 8 or more gives Met; anything lower gives Not met.

molecule="COc1ccc([C@@H]2CN(c3c(C)ccn(C4CCOC4)c3=O)C(=O)[C@H]2NC(=O)c2ccc(OC(F)(F)F)cc2)cc1 (stereo partly shown) [Example 132]" classification=Met
molecule="COc1cc(F)c([C@@H]2CN(c3cccn(CC(O)CO)c3=O)C(=O)[C@H]2NC(=O)c2ccc(Cl)cc2)c(F)c1 (stereo partly shown) [Example 680]" classification=Met
molecule="COc1cc(F)c([C@@H]2CN(c3cc(OCC4CCCO4)ncn3)C(=O)[C@H]2NC(=O)c2ccc(Cl)cc2)c(F)c1 (stereo partly shown) [Example 499]" classification="Not met"

In plain terms: is recorded pEC50 at least 8 for COc1cc(F)c([C@@H]2CN(c3ccnn(CC(O)C(F)(F)F)c3=O)C(=O)[C@H]2NC(=O)c2ccc(OC(F)F)cc2)c(F)c1 (stereo partly shown) [Example 475] ?
Met

###

System Tested: human FPR1 (Homo sapiens (Human))
Sequence (P21462 whole entry): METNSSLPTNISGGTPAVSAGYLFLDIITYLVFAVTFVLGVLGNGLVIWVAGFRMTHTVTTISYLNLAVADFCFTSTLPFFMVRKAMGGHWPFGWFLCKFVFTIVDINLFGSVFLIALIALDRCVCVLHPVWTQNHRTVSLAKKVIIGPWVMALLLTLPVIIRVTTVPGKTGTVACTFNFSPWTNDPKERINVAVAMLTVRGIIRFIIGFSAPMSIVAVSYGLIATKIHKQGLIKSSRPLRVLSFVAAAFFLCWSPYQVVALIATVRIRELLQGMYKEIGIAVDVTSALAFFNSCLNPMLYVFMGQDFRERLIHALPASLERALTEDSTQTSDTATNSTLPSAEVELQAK
Assay Notes: FPR1 cyclic adenosine monophosphate (cAMP) assay
Experimental Parameters: CHO cells overexpressing human FPR1; forskolin 10 µM; inhibition of cAMP production; read-out: hFPR1 cAMP EC50
For each entry below, report its EC50 value.
Numbers only, in nM.

The following compounds have reported results that may help.
compound="COc1ccc([C@@H]2CN(c3c(C)ccn(C4CCOC4)c3=O)C(=O)[C@H]2NC(=O)c2ccc(OC(F)F)cc2)cc1 (some centres unmarked) [Example 265]" reported=1.5
compound="COc1ccc([C@@H]2CN(c3c(C)ccn(CCO)c3=O)C(=O)[C@H]2NC(=O)c2ccc(OC(F)(F)F)cc2)cc1 [Example 108]" reported=0.4
compound="CCn1ccc(C)c(N2C[C@@H](c3ccc(OC)cc3)[C@H](NC(=O)c3ccc(OC(F)(F)F)cc3)C2=O)c1=O [Example 170]" reported=0.9
compound="CCn1nccc(N2C[C@@H](c3c(F)cc(OC)cc3F)[C@H](NC(=O)c3ccc(OC(F)F)cc3)C2=O)c1=O [Example 358]" reported=14
compound="COc1ccc([C@@H]2CN(c3c(C)ccn(CCO)c3=O)C(=O)[C@H]2NC(=O)c2ccc(OC(F)(F)F)cc2)c(F)c1 [Example 375]" reported=3
compound="COc1cc(F)c([C@H]2[C@H](NC(=O)c3ccc(Cl)cc3)C(=O)N(c3nccn(CC(F)F)c3=O)[C@H]2C)c(F)c1 [Example 560]" reported=120
compound="COc1cc(F)c([C@@H]2CN(c3ccc[nH]c3=O)C(=O)[C@H]2NC(=O)c2ccc(OC(F)F)cc2)c(F)c1 [Example 95]" reported=160
compound="COc1cc(F)c([C@@H]2CN(c3c(C)ccn(CC(F)F)c3=O)C(=O)[C@H]2NC(=O)c2ccc(OC(F)F)cc2)c(F)c1 [Example 90]" reported=3.5
compound="COc1ccc([C@@H]2CN(c3c(C)ccn(CCO)c3=O)C(=O)[C@H]2NC(=O)c2ccc(OC(F)F)cc2)c(F)c1 [Example 367]" reported=3
compound="COc1cc(F)c([C@@H]2CN(c3nc(NC4CCOC4)ccc3F)C(=O)[C@H]2NC(=O)c2ccc(OC(F)F)cc2)c(F)c1 (some centres unmarked) [Example 271]" reported=1400

Hello, I would appreciate it if you could give EC50 for each entry below.
1. COCCn1nccc(N2C[C@@H](c3c(F)cc(OC)cc3F)[C@H](NC(=O)c3ccc(OC(F)F)cc3)C2=O)c1=O [Example 398]
2. COc1cc(F)c([C@@H]2CN(c3c(C)ccn(CC(F)F)c3=O)C(=O)[C@H]2NC(=O)c2ccc(Cl)cc2)c(F)c1 [Example 653]
3. COc1cc(F)c([C@@H]2CN(c3cccn(CC(F)F)c3=O)C(=O)[C@H]2NC(=O)c2ccc(OC(F)F)cc2)c(F)c1 [Example 145]
4. COc1cc(F)c([C@@H]2CN(c3nc(N4CC5(COC5)C4)ccc3OC)C(=O)[C@H]2NC(=O)c2ccc(OC(F)F)cc2)c(F)c1 [Example 223]
5. COCC(C(=O)N(C)C)n1cccc(N2C[C@@H](c3ccc(OC)cc3F)[C@H](NC(=O)c3ccc(OC(F)F)cc3)C2=O)c1=O (some centres unmarked) [Example 428]
6. COc1cc(F)c([C@H]2[C@H](NC(=O)c3ccc(OC(F)F)cc3)C(=O)N(c3cccc(C4CCN(CC(F)F)CC4)n3)[C@H]2C)c(F)c1 [Example 537]
7. COc1cc(F)c([C@@H]2CN(c3ccc(C(=O)O)n(CCO)c3=O)C(=O)[C@H]2NC(=O)c2ccc(OC(F)(F)F)cc2)c(F)c1 [Example 703]

[11, 12, 8.2, 100, 8, 35, 99]

###

System Tested: human FPR1 (Homo sapiens (Human))
Assay Notes: FPR1 cyclic adenosine monophosphate (cAMP) assay
Experimental Parameters: CHO cells overexpressing human FPR1; forskolin 10 µM; inhibition of cAMP production; read-out: hFPR1 cAMP EC50
Endpoint: EC50 (µM)
Numbers only, in µM.

The following molecules have reported results that may help.
molecule="COc1cc(F)c([C@@H]2CN(c3cc(OCC4CCOC4)ncn3)C(=O)[C@H]2NC(=O)c2ccc(Cl)cc2)c(F)c1 (stereo partly drawn)" reported=0.079
molecule=COc1cc(F)c([C@@H]2CN(c3cn(C)nc3OC)C(=O)[C@H]2NC(=O)c2ccc(Cl)cc2)c(F)c1 reported=0.67
molecule="CC(O)Cn1cccc(N2C[C@@H](c3ccc(Cl)cc3)[C@H](NC(=O)c3ccc(Cl)cc3)C2=O)c1=O (stereo partly drawn)" reported=0.011
molecule="COc1cc(F)c([C@@H]2CN(c3cccc(C4CCCN(CCO)C4)n3)C(=O)[C@H]2NC(=O)c2ccc(OC(F)F)cc2)c(F)c1 (stereo partly drawn) [Example 502]" reported=0.9

Hello, I would appreciate it if you could give EC50 for each entry below.
1. COc1cc(F)c([C@@H]2CN(c3c(C)ccn(CC4CCOC4)c3=O)C(=O)[C@H]2NC(=O)c2ccc(OC(F)(F)F)cc2)c(F)c1 (stereo partly drawn)
2. COc1cc(C2CCN(CCF)CC2)nc(N2C(=O)[C@@H](NC(=O)c3ccc(OC(F)F)cc3)[C@H](c3c(F)cc(OC)cc3F)[C@@H]2C)c1

0.0067
3.4

###

System Tested: human FPR2 (Homo sapiens (Human))
Assay Notes: FPR2 cyclic adenosine monophosphate (cAMP) assay
Experimental Parameters: CHO cells overexpressing human FPR2; forskolin 5 µM; inhibition of cAMP production; read-out: hFPR2 cAMP2 EC50
For each entry below, report its pEC50 value.
One number for each entry, as −log10 of the molar value.

The following molecules have reported results that may help.
molecule=COc1cc(F)c([C@@H]2CN(c3cc(OC)ccc3F)C(=O)[C@H]2NC(=O)c2ccc(OC(F)(F)F)cc2)c(F)c1 system_tested="human FPR2 (Homo sapiens (Human))" reported=7.82
molecule=COc1cc(F)c([C@@H]2CN(c3cccn(CCN4CCOCC4)c3=O)C(=O)[C@H]2NC(=O)c2ccc(OC(F)F)cc2)c(F)c1 system_tested="human FPR2 (Homo sapiens (Human))" reported=8.57
molecule=COc1ccc([C@@H]2CN(c3c(C)ccn(CC4CC4)c3=O)C(=O)[C@H]2NC(=O)c2ccc(OC(F)(F)F)cc2)cc1 system_tested="human FPR2 (Homo sapiens (Human))" reported=8.85
molecule=COc1cc(F)c([C@@H]2CN(c3nccc(NCC(C)(C)O)c3C(F)(F)F)C(=O)[C@H]2NC(=O)c2ccc(Cl)cc2)c(F)c1 system_tested="human FPR2 (Homo sapiens (Human))" reported=8.37
molecule=COc1cc(F)c([C@@H]2CN(c3c(C)ccn(C)c3=O)C(=O)[C@H]2NC(=O)c2ccc(OC(F)F)cc2)c(F)c1 system_tested="human FPR2 (Homo sapiens (Human))" reported=8.00
molecule="COc1cc(F)c([C@@H]2CN(c3c(C)ccn(CC(O)C(F)(F)F)c3=O)C(=O)[C@H]2NC(=O)c2ccc(OC(F)F)cc2)c(F)c1 (stereo partly shown) [Example 634]" system_tested="human FPR2 (Homo sapiens (Human))" reported=8.70
molecule=COc1cc(N2C[C@@H](c3c(F)cc(OC)cc3F)[C@H](NC(=O)c3ccc(OC(F)F)cc3)C2=O)nc(C(C)(C)O)c1 system_tested="human FPR2 (Homo sapiens (Human))" reported=7.66
molecule=COc1ccc([C@@H]2CN(c3c(C)ccn(CC(F)F)c3=O)C(=O)[C@H]2NC(=O)c2ccc(OC(F)(F)F)cc2)cc1 system_tested="human FPR2 (Homo sapiens (Human))" reported=8.51

Hello, I would appreciate it if you could give pEC50 for each entry below.
1. COCC(CO)n1ccc(C)c(N2C[C@@H](c3ccc(OC)cc3)[C@H](NC(=O)c3ccc(OC(F)(F)F)cc3)C2=O)c1=O (stereo partly shown) [Example 563]
2. CCn1cccc(N2C[C@@H](c3ccc(Cl)cc3)[C@H](NC(=O)c3ccc(OC(F)(F)F)cc3)C2=O)c1=O
3. COc1cc(F)c([C@@H]2CN(c3ncn(CC(C)C)n3)C(=O)[C@H]2NC(=O)c2ccc(Cl)cc2)c(F)c1
4. COc1cc(F)c([C@@H]2CN(c3ccnn(CC(F)F)c3=O)C(=O)[C@H]2NC(=O)c2ccc(OC(F)F)cc2)c(F)c1
5. COCCn1cccc(N2C[C@@H](c3c(F)cc(OC)cc3F)[C@H](NC(=O)c3ccc(OC(C)C)cc3)C2=O)c1=O

1: 8.64; 2: 8.74; 3: 8.64; 4: 8.68; 5: 6.96

Hello, I would appreciate it if you could give pEC50 for each entry below.
1. COc1cc(F)c([C@@H]2CN(c3cc(OCC4CCOC4)ncn3)C(=O)[C@H]2NC(=O)c2ccc(Cl)cc2)c(F)c1 (stereo partly shown)
2. COCCn1cccc(N2C[C@@H](c3c(F)cc(OC)cc3F)[C@H](NC(=O)c3ccc(OC(F)F)cc3)C2=O)c1=O [Example 36]

1: 7.39; 2: 8.26

Hello, I would appreciate it if you could give pEC50 for each entry below.
1. COc1cc(F)c([C@@H]2CN(c3cccc(C4CCCNC4)n3)C(=O)[C@H]2NC(=O)c2ccc(OC(F)F)cc2)c(F)c1 (stereo partly shown) [Example 719]
2. COc1cc(F)c([C@@H]2CN(c3cncnc3OC3CCOCC3)C(=O)[C@H]2NC(=O)c2ccc(Cl)cc2)c(F)c1

1. 8.85
2. 8.16
